Test: Oral pharmacokinetics of CSE constituents in rat plasma (UFLC-MS/MS)
Assay type: in vivo, Sprague–Dawley rats
Conditions: male, Sprague-Dawley, single oral CSE 40 mg/kg, n = 6, mean ± SEM
recorded_endpoint: Cmax (ng/mL)
Please reply with the bare figure in ng/mL and do not write the unit itself.

1) CC(/C=C/C=C(\C)C(=O)OC1OC(COC2OC(CO)C(O)C(O)C2O)C(O)C(O)C1O)=C\C=C\C=C(C)\C=C\C=C(/C)C(=O)OC1OC(COC2OC(CO)C(O)C(O)C2O)C(O)C(O)C1O (stereo not drawn) [T4C, trans-4-GG-crocin] : 49.3
2) CC(=C/C=C/C=C(C)/C=C/C=C(\C)C(=O)OC1OC(COC2OC(CO)C(O)C(O)C2O)C(O)C(O)C1O)/C=C/C=C(\C)C(=O)OC1OC(COC2OC(CO)C(O)C(O)C2O)C(O)C(O)C1O (stereo not drawn) [C4C, cis-4-GG-crocin] : 86.1

Let us move to another entry and its Cmax.
Request the reported Cmax associated with CC1=C(C=O)C(C)(C)C[C@H](O[C@@H]2O[C@H](CO)[C@@H](O)[C@H](O)[C@H]2O)C1 2720
